So I've got a bunch of compounds here, and I need their NEUTROPHIL values.
Organism: Rattus norvegicus
Experiment: DrugMatrix - Regimen: Daily Repeat
Format: toxicity, organism-based, Sprague-Dawley
Design: regimen Daily Repeat, gender Male, age 6-8 weeks
Conditions: in vivo, po, 0 mg/kg, 72 h, tissue Blood, route oral GAVAGE, dose level Control, time 3 day, vehicle 100 % WATER
One number for each entry, in %.

Hi team, please reply with NEUTROPHIL for each item in this list.
1. ClC(Cl)Cl [CHLOROFORM]
2. CC(C)NCC(O)COc1cccc2ccccc12 (centres undefined) [PROPRANOLOL]
3. C[N+](C)(C)CCO.[Cl-] [CHOLINE CHLORIDE]

1: 8.33; 2: 10.5; 3: 7

Hi team, please reply with NEUTROPHIL for each item in this list.
1. CC(C)C[C@H](NC(=O)[C@@H](O)[C@H](N)Cc1ccccc1)C(=O)O [UBENIMEX]
2. Cc1ncc([N+](=O)[O-])n1CCO [METRONIDAZOLE]
3. COC(=O)C1=C(C)NC(C)=C(C(=O)OCC(C)C)C1c1ccccc1[N+](=O)[O-] (centres undefined) [NISOLDIPINE]
4. Nc1ccn([C@@H]2CS[C@H](CO)O2)c(=O)n1 [LAMIVUDINE]
5. CC(C)(C)c1ccc(C(=O)CCCN2CCC(OC(c3ccccc3)c3ccccc3)CC2)cc1 [EBASTINE]

1: 8.17; 2: 8.33; 3: 7.17; 4: 9.17; 5: 8.5

State the recorded NEUTROPHIL for this entry: C[C@@H]1C[C@@H]([C@H](O)CC2CC(=O)NC(=O)C2)C(=O)[C@@H](C)C1 [CYCLOHEXIMIDE]
9

----------
So I've got a bunch of molecules here, and I need their HEMOGLOBIN values.
Species on record: Rattus norvegicus
Experiment: DrugMatrix - Regimen: Daily Repeat
Format: toxicity, organism-based, Sprague-Dawley
Set-up: regimen Daily Repeat, gender Male, age 6-8 weeks
Details: in vivo, po, 0 mg/kg, 120 h, tissue Blood, route oral GAVAGE, dose level Control, time 5 day, vehicle 100 % WATER
Give bare numbers, in G/DL.

- molecule: "Nc1ccn([C@@H]2CS[C@H](CO)O2)c(=O)n1"
  HEMOGLOBIN (G/DL): 13.47
- molecule: "COc1cc2ncnc(Nc3ccc(F)c(Cl)c3)c2cc1OCCCN1CCOCC1"
  HEMOGLOBIN (G/DL): 14.23
- molecule: "Cc1ncc([N+](=O)[O-])n1CCO"
  HEMOGLOBIN (G/DL): 14.03
- molecule: "ClC(Cl)Cl [CHLOROFORM]"
  HEMOGLOBIN (G/DL): 14.03
- molecule: "CC(C)NCC(O)COc1cccc2ccccc12 (stereo not given)"
  HEMOGLOBIN (G/DL): 13.72

Hi team, please reply with HEMOGLOBIN for each item in this list.
1. CC(C)C[C@H](NC(=O)[C@@H](O)[C@H](N)Cc1ccccc1)C(=O)O
2. CC(C)(C)c1ccc(C(=O)CCCN2CCC(OC(c3ccccc3)c3ccccc3)CC2)cc1
3. C[N+](C)(C)CCO.[Cl-] [CHOLINE CHLORIDE]
4. C[C@@H]1C[C@@H]([C@H](O)CC2CC(=O)NC(=O)C2)C(=O)[C@@H](C)C1 [CYCLOHEXIMIDE]
5. COC(=O)C1=C(C)NC(C)=C(C(=O)OCC(C)C)C1c1ccccc1[N+](=O)[O-] (stereo not given)

14.1
13.9
14.22
13.28
13.72

----------
Organism: Rattus norvegicus
Test: DrugMatrix - Regimen: Daily Repeat
Type: toxicity, organism-based, Sprague-Dawley
Design: regimen Daily Repeat, gender Male, age 6-8 weeks
Details: in vivo, iv, 0 mg/kg, 120 h, tissue Blood, dose level Control, time 5 day, vehicle 100 % SALINE
assay-readout: MONOCYTE (%)
One number for each entry, in %.

- compound: "COc1cccc2c1C(=O)c1c(O)c3c(c(O)c1C2=O)C[C@@](O)(C(=O)CO)C[C@@H]3O[C@H]1C[C@H](N)[C@@H](O)[C@H](C)O1 [EPIRUBICIN]"
  MONOCYTE / %: 0.17
- compound: "CC(=O)N[C@@H]1[C@H](Oc2c3cc4cc2Oc2ccc(cc2Cl)[C@@H](O[C@@H]2O[C@@H](CO)[C@@H](O)[C@H](O)[C@@H]2NC(C)=O)[C@@H]2NC(=O)[C@H](NC(=O)[C@@H]4NC(=O)[C@H]4NC(=O)[C@@H](Cc5ccc(c(Cl)c5)O3)NC(=O)[C@H](N)c3ccc(O)c(c3)Oc3cc(O)cc4c3)c3ccc(O)c(c3)-c3c(O[C@H]4O[C@H](CO)[C@@H](O)[C@@H](O)[C@@H]4O)cc(O)cc3[C@@H](C(=O)O)NC2=O)O[C@@H](CO)[C@@H](O)[C@@H]1O"
  MONOCYTE / %: 3.5

State the recorded MONOCYTE for this entry: CCc1c2c(nc3ccc(OC(=O)N4CCC(N5CCCCC5)CC4)cc13)-c1cc3c(c(=O)n1C2)COC(=O)[C@]3(O)CC
0.17

----------
Organism: Rattus norvegicus
Experiment: DrugMatrix - Regimen: Daily Repeat
Format: toxicity, organism-based, Sprague-Dawley
Set-up: regimen Daily Repeat, gender Male, age 6-8 weeks
Details: in vivo, po, 0 mg/kg, 120 h, tissue Blood, route oral GAVAGE, dose level Control, time 5 day, […]
So I've got a bunch of compounds here, and I need their MEAN CORPUSCULAR HEMOGLOBIN CONCENTRATION values.
Answers are plain numbers, in G/DL.

Observe how each entry below is paired with its result.
- compound: "CC/C(=C(/CC)c1ccc(O)cc1)c1ccc(O)cc1"
  quantitative-readout: 38.42
- compound: "CC(C)Cc1ccc(C(C)C(=O)O)cc1 (stereo not drawn)"
  quantitative-readout: 40.67
- compound: "O=NN(CCCl)C(=O)NCCCl"
  quantitative-readout: 38.95
- compound: "COCCOC(=O)C1=C(C)NC(C)=C(C(=O)OC(C)C)C1c1cccc([N+](=O)[O-])c1 (stereo not drawn)"
  quantitative-readout: 38.25
- compound: "COc1ccc2[nH]c([S+]([O-])Cc3ncc(C)c(OC)c3C)nc2c1 (stereo not drawn)"
  quantitative-readout: 38.82

Hi team, please reply with MEAN CORPUSCULAR HEMOGLOBIN CONCENTRATION for each item in this list.
1. Clc1ccc(Cl)cc1
2. CC(C)(Oc1ccc(C2CCCc3ccccc32)cc1)C(=O)O (stereo not drawn)
3. CC(=O)Nc1ccc(O)cc1
4. C[C@]12CC[C@@H]3c4ccc(O)cc4CC[C@H]3[C@@H]1CC[C@@H]2O
5. C[C@H]1O[C@@H](O[C@H]2[C@@H](O)C[C@H](O[C@H]3[C@@H](O)C[C@H](O[C@H]4CC[C@@]5(C)[C@H](CC[C@@H]6[C@@H]5CC[C@]5(C)[C@@H](C7=CC(=O)OC7)CC[C@]65O)C4)O[C@@H]3C)O[C@@H]2C)C[C@H](O)[C@@H]1O
6. CCOC(=O)C1=C(C)NC(C)=C(C(=O)OC)C1c1cccc([N+](=O)[O-])c1 (stereo not drawn)

1. 30.77
2. 38.22
3. 38.95
4. 39.62
5. 39.08
6. 38.25

Hi team, please reply with MEAN CORPUSCULAR HEMOGLOBIN CONCENTRATION for each item in this list.
1. Cc1cccc(Nc2ccncc2S(=O)(=O)NC(=O)NC(C)C)c1 [TORSEMIDE]
2. CC(=O)Nc1cccc(O)c1

1: 39.62; 2: 39.42

----------
So I've got a bunch of compounds here, and I need their EOSINOPHIL values.
Species: Rattus norvegicus
Test: DrugMatrix - Regimen: Daily Repeat
Type: toxicity, organism-based, Sprague-Dawley
Set-up: regimen Daily Repeat, gender Male, age 6-8 weeks
Details: in vivo, po, 0 mg/kg, 120 h, tissue Blood, route oral GAVAGE, dose level Control, time 5 day, […]
Note to self: number, then unit, no commentary.

Observe how each entry below is paired with its result.
- compound: "CCOC(=O)C1=C(C)NC(C)=C(C(=O)OC)C1c1cccc([N+](=O)[O-])c1 (stereo not drawn)"
  result: "0%"
- compound: "C[C@]12CC[C@@H]3c4ccc(O)cc4CC[C@H]3[C@@H]1CC[C@@H]2O"
  result: "0%"
- compound: "Clc1ccc(Cl)cc1"
  result: "0.5%"
- compound: "CC/C(=C(/CC)c1ccc(O)cc1)c1ccc(O)cc1"
  result: "0.5%"
- compound: "CC(=O)Nc1ccc(O)cc1"
  result: "0%"

Hi team, please reply with EOSINOPHIL for each item in this list.
1. C[C@H]1O[C@@H](O[C@H]2[C@@H](O)C[C@H](O[C@H]3[C@@H](O)C[C@H](O[C@H]4CC[C@@]5(C)[C@H](CC[C@@H]6[C@@H]5CC[C@]5(C)[C@@H](C7=CC(=O)OC7)CC[C@]65O)C4)O[C@@H]3C)O[C@@H]2C)C[C@H](O)[C@@H]1O
2. CC(C)(Oc1ccc(C2CCCc3ccccc32)cc1)C(=O)O (stereo not drawn)

["0.17%", "0.17%"]

State the recorded EOSINOPHIL for this entry: COCCOC(=O)C1=C(C)NC(C)=C(C(=O)OC(C)C)C1c1cccc([N+](=O)[O-])c1 (stereo not drawn)
0%
